experiment: Study G1T28-03 Part 1 plasma PK (with topotecan); format: in vivo, human; details: human, plasma, 280 mg/m2, ES-SCLC + topotecan, 280 mg/m2, Cycle 1 Day 1 (n = 7), range
Reported endpoint: Tmax

Exam item: Fill in reported Tmax for this entry: CN1CCN(c2ccc(Nc3ncc4cc5n(c4n3)C3(CCCCC3)CNC5=O)nc2)CC1
Marked response: 25.2 to 37.2 min

* * *

assay: Study G1T28-1-01 plasma PK, first-in-human single dose; type: in vivo; conditions: both sexes, human, plasma; healthy volunteers, single 30-min IV 6 mg/m2 (n = 3), mean
Reported endpoint: half-life (h)
Please respond with the number in h and leave the unit unwritten.

Exam item: Provide half-life value for the following compound: CN1CCN(c2ccc(Nc3ncc4cc5n(c4n3)C3(CCCCC3)CNC5=O)nc2)CC1 [trilaciclib]
Marked response: 5.32

* * *

assay: Study G1T28-1-01 plasma PK, first-in-human single dose; assay type: in vivo; conditions: both sexes, human, plasma; healthy volunteers, single 30-min IV 12 mg/m2 (n = 3), mean
Reported endpoint: half-life (h)
Your answer is read as h, so omit the unit and give the number.

Exam item: Tell me half-life reported for CN1CCN(c2ccc(Nc3ncc4cc5n(c4n3)C3(CCCCC3)CNC5=O)nc2)CC1
Marked response: 7.62

* * *

test: Study G1T28-1-01 plasma PK, first-in-human single dose; format: in vivo; conditions: both sexes, human, plasma, iv, 24 mg/m2, healthy volunteers, single 30-min IV 24 mg/m2 (n = 3), mean; read-out: Vz
Reported endpoint: Vd (L)
# value in L; strip the unit string

Exam item: Using known records, supply Vd for CN1CCN(c2ccc(Nc3ncc4cc5n(c4n3)C3(CCCCC3)CNC5=O)nc2)CC1
Marked response: 2310

* * *

test: Study G1T28-03 Part 1 plasma PK (with topotecan); format: in vivo, human; settings: human, plasma, 200 mg/m2, ES-SCLC + topotecan, 200 mg/m2, Cycle 1 Day 4 (n = 9), range
Reported endpoint: Tmax

Exam item: Please report Tmax for the following compound: CN1CCN(c2ccc(Nc3ncc4cc5n(c4n3)C3(CCCCC3)CNC5=O)nc2)CC1
Marked response: 22.8 to 34.8 min

* * *

Test: Study G1T28-03 Part 1 plasma PK (with topotecan)
Format: in vivo, human
Settings: human, plasma, 280 mg/m2, ES-SCLC + topotecan, 280 mg/m2, Cycle 1 Day 4 (n = 7), geometric mean; read-out: Vz
From the text: G1T28-03 (NCT02514447) was a multicentre Phase Ib/IIa study in patients with previously treated ES-SCLC [14]. […] Part 1 was a Phase Ib, open-label, dose-finding portion. Part 2 was a Phase IIa, randomized, double-blind, placebo-controlled portion. […] In Part 1 of the study, blood samples for PK analysis were collected at prespecified time points on Cycle 1 Day 1 and Cycle 1 Day 4 for all patients.
Reported endpoint: Vd (L)
Return type: number; implicit unit L.

Exam item: Identify the reported Vd for the following entry. CN1CCN(c2ccc(Nc3ncc4cc5n(c4n3)C3(CCCCC3)CNC5=O)nc2)CC1
Marked response: 1530

* * *

assay: Study G1T28-1-01 plasma PK, first-in-human single dose; type: in vivo; details: both sexes, human, plasma, iv, 12 mg/m2, healthy volunteers, single 30-min IV 12 mg/m2 (n = 3), mean
Reported endpoint: clearance (mL/min)
The reply should be a number in mL/min, with the unit left off.

Exam item: Specify reported clearance for the compound shown: CN1CCN(c2ccc(Nc3ncc4cc5n(c4n3)C3(CCCCC3)CNC5=O)nc2)CC1
Marked response: 2700
